Listed here are binders together with their documented percentage reduction of b-hBSSL binding to CD14+ monocytes.
TARGET_SYSTEM: T1, Biotinylated human BSSL (human, UniProt P19835 21-753, Biotinylated on glycosacarides, 30-40 biotin/BSSL)
T1 construct: hBSSL biotinylated in house; also called b-hBSSL; human BSSL-biotin
T1 sequence: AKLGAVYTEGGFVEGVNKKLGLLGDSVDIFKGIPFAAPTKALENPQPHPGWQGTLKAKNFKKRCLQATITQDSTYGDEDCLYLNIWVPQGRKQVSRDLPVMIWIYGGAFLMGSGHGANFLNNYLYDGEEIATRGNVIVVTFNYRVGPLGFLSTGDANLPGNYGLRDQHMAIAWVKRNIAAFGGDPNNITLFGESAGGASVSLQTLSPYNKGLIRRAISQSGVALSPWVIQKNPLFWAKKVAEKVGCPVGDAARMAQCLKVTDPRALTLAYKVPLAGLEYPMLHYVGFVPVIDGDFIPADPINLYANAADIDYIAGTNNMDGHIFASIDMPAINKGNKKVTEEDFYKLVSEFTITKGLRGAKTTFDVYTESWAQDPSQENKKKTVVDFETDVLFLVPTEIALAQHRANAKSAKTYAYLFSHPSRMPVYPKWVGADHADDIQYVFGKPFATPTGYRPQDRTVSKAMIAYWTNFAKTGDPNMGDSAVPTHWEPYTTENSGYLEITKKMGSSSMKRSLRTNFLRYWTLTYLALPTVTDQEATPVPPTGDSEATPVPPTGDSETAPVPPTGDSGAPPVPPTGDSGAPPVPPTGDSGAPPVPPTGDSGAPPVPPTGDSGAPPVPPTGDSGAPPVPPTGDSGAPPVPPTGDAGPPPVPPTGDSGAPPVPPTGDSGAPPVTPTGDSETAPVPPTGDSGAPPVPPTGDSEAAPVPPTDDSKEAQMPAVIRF
TEST_NAME: flow cytometry displacement assay; 3.0 ug antibody, 1 ug b-hBSSL
Dear colleague, please return just the value in %, with no unit written.

Reference set, count: 2
BINDER	UNIT_INFO	MEASUREMENT
S-SL048-17 hIgG4 S228P (antibody, V domains shown, Tested as human IgG4 S228P) VH: QVQLVQSGAEVKKPGASVKVSCKASGYTFTSYNMHWVRQAPGQGLEWMGVINPGDGYTSYTQKFKGRVTMTRDTSTSTVYMELSSLRSEDTAVYYCARDYYGSSPLGYWGQGTLVTVSS VL: DIQMTQSPSSLSASVGDRVTITCRASQSISYLNWYQQKPGKAPKLLIYAASKLPSGVPSRFSGSGSGTDFTLTISSLQPEDFATYYCQQRSSSPTFGQGTKLEIK	%	36
S-SL048-65 hIgG4 S228P (antibody, V domains shown, Tested as human IgG4 S228P) VH: QVQLVQSGAEVKKPGASVKVSCKASGYTFTSYNMHWVRQAPGQGLEWIGVINPGDGATSYAQKFKGRVTMTRDTSTSTVYMELSSLRSEDTAVYYCARDYYGSSPLGYWGQGTLVTVSS VL: DIQMTQSPSSLSASVGDRVTITCSASQSISYLNWYQQKPGKAPKLLIYDASSLPSGVPSRFSGSGSGTDFTLTISSLQPEDFATYYCHQRSSSPTFGQGTKLEIK	%	39

Then there is this binder:
Value lookup for percentage reduction of b-hBSSL binding to CD14+ monocytes; key = S-SL048-40 hIgG4 S228P (antibody, V domains shown, Tested as human IgG4 S228P) VH: QVQLVQSGAEVKKPGASVKVSCKASGYTFTSYNMHWVRQAPGQGLEWIGVINPSDGATSYAQKFQGRVTMTRDTSTSTVYMELSSLRSEDTAVYYCARDYYGSSPLGYWGQGTLVTVSS VL: DIQMTQSPSSLSASVGDRVTITCRASSSISYLNWYQQKPGKAPKLLIYAASRLPSGVPSRFSGSGSGTDFTLTISSLQPEDFATYYCQQRSSSPTFGQGTKLEIK
53
